Source of measurements: the supplement of paper PMC10567573

B1: C1orf137 (parent)
chain: LPQETNLTLKVCKPQAPQKLDPTL

Variants of: B1
TEST SUMMARY: protein stability index of a GFP-peptide fusion (GPS, HEK-293T) (PSI 1-6); higher = more stable;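 also: lentivirally expressed fusions sorted by FACS into six bins by GFP to DsRed ratio, PSI derived from sequencing read proportions per bin multiplied by bin number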
STATED CONDITIONS: c terminus: a fixed tail appended
MEASURED METRIC: protein stability index
One number for each entry.

* LPQETNLTLEVCKPQAPQKLDPTL [K10E] | 4.5

Your task in this section: give protein stability index for each listed record.
1. LPQETNLTLKVCKPQAPQKLHPTL [D21H]
2. LPQETNLTLKVCKPQAPQYLDPTL [K19Y]
3. LPQETNLTLKVWKPQAPQKLDPTL [C12W]
4. LPQETNLTLKVCKPQAPQKLNPTL [D21N]
5. LPQETNLTLKVCKPQACQKLDPTL [P17C]
6. LPQETNLTLKVCKPQAPQKLDATL [P22A]
7. LPQETNLTLKVFKPQAPQKLDPTL [C12F]

2.86
3.36
4.28
3.17
3.51
3.16
3.7
